Origin of the recorded values: the supplement of paper PMC7877785

I'd appreciate it if you could supply self-splicing fitness (ln) values for the items below.
assay: self-splicing fitness, log relative to wild type (ln ratio); higher = more splicing; Tetrahymena group I intron in knt gene, E. coli kanamycin selection, DiMSum; sequences stand for … in CUCUCU…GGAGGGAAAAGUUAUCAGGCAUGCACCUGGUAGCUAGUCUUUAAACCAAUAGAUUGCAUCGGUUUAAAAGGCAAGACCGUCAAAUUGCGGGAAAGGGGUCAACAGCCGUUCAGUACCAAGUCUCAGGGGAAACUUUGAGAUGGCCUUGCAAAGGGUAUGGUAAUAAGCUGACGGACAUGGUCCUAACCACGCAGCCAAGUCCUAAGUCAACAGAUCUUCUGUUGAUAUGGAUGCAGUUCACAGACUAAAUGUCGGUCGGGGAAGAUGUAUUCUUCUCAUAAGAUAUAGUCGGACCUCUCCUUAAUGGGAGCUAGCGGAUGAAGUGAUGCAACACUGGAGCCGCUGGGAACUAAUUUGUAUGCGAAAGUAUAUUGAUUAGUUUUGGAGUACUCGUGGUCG; settings: 30 °C;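 note: selection with 25 µg/mL kanamycin versus none on LB agar overnight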
Give bare numbers.

Examples from the recorded data:
# lookup: self-splicing fitness (ln) of `UCACAGCAAUAUUACGAAUG`
-1.77

Return reported self-splicing fitness (ln); argument: `CAUGAGCAAUAUUACGUGGU`
-3.53

Provide the reported self-splicing fitness (ln) of each entry below, same order.
1. CGCGAGCAAUAUUACGUAGA
2. GUUUAGCAAUAUUACGUGUU
3. UACCAGCAAUAUUACGUCAG
4. UAUUAGCAAUAUUACGGUUG
5. CCCAAGCAAUAUUACGUGCA
6. AGAUAGCAAUAUUACGCGAC
7. UUACAGCAAUAUUACGGCUG
8. CUAAAGCAAUAUUACGCGUC

1: -3.09; 2: -2.4; 3: -0.702; 4: -0.953; 5: -3.83; 6: -2.67; 7: -2.21; 8: -3.94

Record self-splicing fitness (ln) for all entries; do not skip any.
1. CGGGAGCAAUAUUACGACCU
2. GUGCAGCAAUAUUACGUGCU
3. CAACAGCAAUAUUACGCCAG
4. AUUAAGCAAUAUUACGGGGC

1: -0.87; 2: -3.49; 3: -1.4; 4: -3

Record self-splicing fitness (ln) per entry; entries follow.
1. GUUUAGCAAUAUUACGCGGA
2. CUUCAGCAAUAUUACGUAAA

[-1.9, -3.05]

* * *

assay: self-splicing fitness, log relative to wild type (ln ratio); higher = more splicing; Tetrahymena group I intron in knt gene, E. coli kanamycin selection, DiMSum; sequences stand for … in CUCUCU…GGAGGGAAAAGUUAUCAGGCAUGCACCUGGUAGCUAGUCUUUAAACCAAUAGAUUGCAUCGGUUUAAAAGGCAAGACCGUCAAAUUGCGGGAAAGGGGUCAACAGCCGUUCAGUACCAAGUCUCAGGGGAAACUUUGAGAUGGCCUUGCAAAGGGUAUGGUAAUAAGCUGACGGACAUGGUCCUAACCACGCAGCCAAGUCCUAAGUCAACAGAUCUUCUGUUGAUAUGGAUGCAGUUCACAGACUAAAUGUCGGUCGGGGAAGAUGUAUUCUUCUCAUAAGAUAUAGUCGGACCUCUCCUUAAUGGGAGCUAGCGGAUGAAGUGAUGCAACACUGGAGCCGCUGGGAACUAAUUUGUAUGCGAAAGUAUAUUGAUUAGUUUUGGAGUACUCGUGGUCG; conditions: 30 °C
Entry class follows self-splicing fitness (ln): low range: < -3; mid range: ≥ -3 and < -2; high range: ≥ -2

# count of solved cases: 10
Hey, which category is `CAACAGCAAUAUUACGCUCG` in, do you know?
high range

Kindly identify the class of `CGGCAGCAAUAUUACGGCGA` .
low range

Please indicate the class for `UCCUAGCAAUAUUACGGGUU` based on its self-splicing fitness (ln).
mid range

Given `CCUUAGCAAUAUUACGGGUC` , name the class its self-splicing fitness (ln) places it in.
low range

Which class is correct for the following sequence? `UGGGAGCAAUAUUACGAAAC`
high range

For this sequence, which bin applies? `UGAUAGCAAUAUUACGCGUG`
high range

Band for the recorded self-splicing fitness (ln) of `UCUGAGCAAUAUUACGAAGA` ?
high range

Form field 'band' for `ACAUAGCAAUAUUACGAAAU`
low range

For this sequence, which bin applies? `UACAAGCAAUAUUACGCGCA`
high range

Quick check: band for `CCGUAGCAAUAUUACGAUUA`
mid range

Further cases:
Exercise: read the entry `UCCUAGCAAUAUUACGUUAA` and state which class it falls under.
low range

Any idea which band `GGGGAGCAAUAUUACGCGGA` is in?
mid range

Assign a bin to `CUUCAGCAAUAUUACGACGU`
low range

State the class of the sequence shown: `UGCCAGCAAUAUUACGUGUU`
mid range

Please indicate the class for `UGUGAGCAAUAUUACGGCGC` based on its self-splicing fitness (ln).
high range

Hello team, could you let me know which band the following sequence falls into: `GUUCAGCAAUAUUACGUGUU`
high range

Exercise: read the entry `AGGCAGCAAUAUUACGAUUA` and state which class it falls under.
high range

* * *

assay: self-splicing fitness, log relative to wild type (ln ratio); higher = more splicing; Tetrahymena group I intron in knt gene, E. coli kanamycin selection, DiMSum; sequences stand for … in CUCUCU…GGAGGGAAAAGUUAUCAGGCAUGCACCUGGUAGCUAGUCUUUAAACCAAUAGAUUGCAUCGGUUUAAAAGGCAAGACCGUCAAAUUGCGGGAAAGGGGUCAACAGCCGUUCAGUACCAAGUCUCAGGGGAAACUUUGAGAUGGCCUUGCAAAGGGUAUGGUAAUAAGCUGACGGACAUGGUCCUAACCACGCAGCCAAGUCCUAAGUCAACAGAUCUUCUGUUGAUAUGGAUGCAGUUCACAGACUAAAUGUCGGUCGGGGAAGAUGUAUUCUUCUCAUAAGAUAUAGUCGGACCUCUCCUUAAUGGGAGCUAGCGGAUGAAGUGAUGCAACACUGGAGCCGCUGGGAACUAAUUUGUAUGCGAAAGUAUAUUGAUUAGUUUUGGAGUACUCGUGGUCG; conditions: 30 °C
Short version: self-splicing fitness (ln) at least -3 is Fulfilled, less is Not fulfilled.

Sample answers from the record:
Quick check, self-splicing fitness (ln) >= -3? `GACUAGCAAUAUUACGAAGC`
Fulfilled

Can `ACAGAGCAAUAUUACGUGUU` be said to have self-splicing fitness (ln) at or above -3?
Fulfilled

self-splicing fitness (ln) >= -3 for `AUGGAGCAAUAUUACGUCCC` ?
Fulfilled

Test whether the sequence `GCAUAGCAAUAUUACGUCAU` records self-splicing fitness (ln) of -3 or higher.
Not fulfilled

Could you tell me if the measured self-splicing fitness (ln) of `AAUAAGCAAUAUUACGAGAU` reaches -3 or more?
Not fulfilled

***
Please indicate if the recorded self-splicing fitness (ln) for `UCCCAGCAAUAUUACGGACC` meets or exceeds -3.
Not fulfilled

Check the entry `CAUAAGCAAUAUUACGGUAA` : does self-splicing fitness (ln) equal or exceed -3?
Not fulfilled

Could you verify whether the entry `GCGUAGCAAUAUUACGUAUU` shows self-splicing fitness (ln) of no less than -3?
Fulfilled

Assess whether reported self-splicing fitness (ln) for `CAUUAGCAAUAUUACGUUAA` sits at -3 or higher.
Fulfilled

Kindly determine if self-splicing fitness (ln) recorded for `GAGCAGCAAUAUUACGUAUC` is above or exactly -3.
Fulfilled

Decide: is the reported value of self-splicing fitness (ln) for `CAUGAGCAAUAUUACGGUAU` equal to or greater than -3?
Not fulfilled

Given `UGGCAGCAAUAUUACGAUAA` , state whether its self-splicing fitness (ln) is at least -3.
Fulfilled

* * *

assay: self-splicing fitness, log relative to wild type (ln ratio); higher = more splicing; Tetrahymena group I intron in knt gene, E. coli kanamycin selection, DiMSum; sequences stand for … in CUCUCU…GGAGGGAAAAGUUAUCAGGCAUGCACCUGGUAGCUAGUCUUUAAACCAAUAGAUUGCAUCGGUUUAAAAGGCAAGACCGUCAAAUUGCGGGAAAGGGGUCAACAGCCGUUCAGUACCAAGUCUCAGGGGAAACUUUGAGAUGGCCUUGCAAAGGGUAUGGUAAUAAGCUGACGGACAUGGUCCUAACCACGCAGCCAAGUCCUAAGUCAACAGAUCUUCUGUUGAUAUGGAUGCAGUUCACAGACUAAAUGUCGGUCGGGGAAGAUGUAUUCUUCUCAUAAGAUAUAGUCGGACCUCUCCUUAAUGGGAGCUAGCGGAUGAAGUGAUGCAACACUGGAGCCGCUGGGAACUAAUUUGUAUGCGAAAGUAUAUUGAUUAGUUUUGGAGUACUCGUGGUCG; details: 30 °C
# label = y if self-splicing fitness (ln) >= -3 else n

In plain terms: is recorded self-splicing fitness (ln) at least -3 for `GCUGAGCAAUAUUACGUACA` ?
y

Has `CAGUAGCAAUAUUACGCACG` a recorded self-splicing fitness (ln) greater than or equal to -3?
y

Identify whether the reported self-splicing fitness (ln) of the following sequence is -3 or greater: `GGGUAGCAAUAUUACGCAUG`
y

New cases:
Please indicate if the recorded self-splicing fitness (ln) for `CUUUAGCAAUAUUACGCAGU` meets or exceeds -3.
y

Is the recorded value of self-splicing fitness (ln) equal to or greater than -3 for this sequence? `UCUUAGCAAUAUUACGGUGC`
n

Evaluate `UCCCAGCAAUAUUACGGGAC` : self-splicing fitness (ln) at minimum -3?
y

Record `AAAGAGCAAUAUUACGUAAU` ; criterion: self-splicing fitness (ln) no lower than -3. Met?
y

Identify whether the reported self-splicing fitness (ln) of the following sequence is -3 or greater: `CUGGAGCAAUAUUACGUGUA`
n

Record `CCCGAGCAAUAUUACGCAUG` ; criterion: self-splicing fitness (ln) no lower than -3. Met?
n

Quick check: does `UAGCAGCAAUAUUACGGGAA` have self-splicing fitness (ln) greater than or equal to -3?
y

Tell me whether self-splicing fitness (ln) is at least -3 here: `UAGAAGCAAUAUUACGCUAA`
y

hey, is self-splicing fitness (ln) for this one >= -3? `UACAAGCAAUAUUACGGCGG`
y

Please tell me: is the sequence `AACUAGCAAUAUUACGUCAG` at or over -3 in terms of self-splicing fitness (ln)?
n

Could you verify whether the entry `UGGAAGCAAUAUUACGGCUC` shows self-splicing fitness (ln) of no less than -3?
y

Is self-splicing fitness (ln) at least -3? Consider `CGUCAGCAAUAUUACGACUG`
y

Hi team, for `CCUCAGCAAUAUUACGCCUG` , is the recorded self-splicing fitness (ln) at or above -3?
y

Say whether `UAAGAGCAAUAUUACGUUUU` shows self-splicing fitness (ln) of -3 or more.
n

Hi team, for `CACUAGCAAUAUUACGCGCC` , is the recorded self-splicing fitness (ln) at or above -3?
y

Item `CUACAGCAAUAUUACGUAGA` with self-splicing fitness (ln) of -3 or above?
n

Exam item: decide whether the reported self-splicing fitness (ln) for `CGGCAGCAAUAUUACGUAAC` is at least -3.
y

Kindly determine if self-splicing fitness (ln) recorded for `UUUUAGCAAUAUUACGGUGA` is above or exactly -3.
y

Kindly determine if self-splicing fitness (ln) recorded for `AUUGAGCAAUAUUACGGCCU` is above or exactly -3.
n

Determine whether measured self-splicing fitness (ln) meets or exceeds -3 for `CAUAAGCAAUAUUACGGUUA`
y

// inclusive: self-splicing fitness (ln) at least -3? input: `CUAGAGCAAUAUUACGAUCU`
n

Determine whether this sequence has self-splicing fitness (ln) no lower than -3: `UUAUAGCAAUAUUACGGGAA`
y

Textbook exercise: given the entry `AAUUAGCAAUAUUACGAAAA` , state whether its self-splicing fitness (ln) is greater than or equal to -3.
y
